Where do these numbers come from? They come from PubChem BioAssay.

ASSAY NAME: 384-well plate pilot, post-Golgi transport modulator project, inhibition of yeast transport mutant growth (AID 636)
SETUP CONDITIONS: absorbance 615 nm, about 18 h, stronger effect = higher value
MEASURED QUANTITY: inhibition (%)

1) O=C(C1CCCCC1)N1CCC(c2nc3c(nnn3Cc3c(F)cccc3Cl)c(=O)[nH]2)CC1: -3.77
2) CC(C)(C)c1ccc(C(=O)Nc2cnccn2)cc1: -4.87
3) Cc1nc(=S)n(-c2ccccc2)[nH]1: -3.2
4) O=C1CSC(=Nc2ccc(O)cc2)N1c1ccc(O)cc1: -7.07
5) COc1ccc(Oc2c(C)oc3cc(OC(=O)N4CCOCC4)ccc3c2=O)cc1: -5.6
6) Nc1nnnn1/N=C/c1ccccc1OCc1ccccc1: -4.13
7) COc1ccccc1CNC(=O)CCNC(=O)Cn1ccc2ccccc2c1=O: -0.13
8) COc1cc(C(=O)Nc2cccc(-c3nc4cc(C)ccc4o3)c2)cc(OC)c1OC: -5
9) CCC(C)NC(=O)C1(C)CCC(=O)N1Cc1ccccc1OC (stereo not given): -5.07
10) CC(=O)CCc1c(C)[nH]c2ccccc2c1=O: 5.84
11) O=C(O)c1c[nH]c2ccc(S(=O)(=O)N3CCN(c4ccc(F)cc4)CC3)cc2c1=O: 0.53
12) CCCCCc1c(C)nc(Nc2nc(C)c3cc(OC)ccc3n2)[nH]c1=O: -7.7
13) CCOC(=O)C1=C(C)N=C2SC(C)C(=O)N2C1c1cccc(F)c1 (stereo not given): -3.82
14) Cc1ccccc1-c1noc(N)c1C#N: -5.68
15) Cc1ccccc1-n1c(=O)cc(NCc2ccc3c(c2)OCO3)[nH]c1=O: -2.57

----------
ASSAY NAME: reversal of MRP1-mediated doxorubicin resistance, pilot screen, H69AR cells, doxorubicin co-treatment (AID 601)
SETUP CONDITIONS: H69AR cells, CellTiter-Glo, 72 h; compound alone cytotoxicity; at 10 µM
Quick reference: viability of the listed items.
MEASURED QUANTITY: viability (%)

1. COc1cccc(N2C(=O)C(O)=C(C(C)=O)C2c2ccc(OC)c(OC)c2)c1 (stereo not given): 100
2. CCc1nnc(NC(=O)CSc2nnc(-c3ccc(OC)cc3)n2C)s1: 104
3. O=C(O)CCN1C(=O)c2ccccc2C1=O: 97.5
4. Cc1nnc(SCC(=O)N2CCN(S(=O)(=O)c3ccccc3)CC2)[nH]c1=O: 107
5. C=CCn1c(N)c(C(=O)NCCC2=CCCCC2)sc1=S: 83.2
6. Cc1nn(-c2ccccc2)c(Cl)c1C(=O)NCC(=O)O: 113
7. Cc1ccc(S(=O)(=O)N(C)Cc2cc3ccccc3[nH]c2=O)cc1: 91.5
8. Cn1c(SCC(=O)Nc2ccc3c(c2)oc2ccccc23)nnc1-c1ccccc1: 69.4
9. COc1ccc2[nH]c(=O)c(CN(C(=O)c3cccnc3)c3ccccc3OC)cc2c1: 89.1
10. CCOc1ccc(C(=O)N(CN2CCCC2=O)c2ccc(C)cc2)cc1: 95.1

----------
Quick reference: inhibition of the listed items.
ASSAY NAME: growth suppression of yeast trafficking mutant, preliminary HTS, modulators of trafficking downstream of Golgi apparatus project, 1536-format plate, OD 615 nm (AID 637)
SETUP CONDITIONS: yeast transport mutant growth, absorbance 615 nm, 18 h; stronger effect = higher value
Square brackets hold non-standard residues; d marks the D form. Peptide text beside a SMILES is read from it. * marks the point of attachment. ξ: configuration not given here. Cbz = O=C(OCc1ccccc1)*; ξK = NCCCCC(N)C(=O)O
MEASURED QUANTITY: inhibition (%)

1. COc1cc(C(=O)N2CCC(c3nc(-c4cccnc4)no3)CC2)cc(OC)c1OC: 6
2. Cc1oc2cc(O)ccc2c(=O)c1-c1cnn(-c2ccccc2)c1: 13.3
3. COc1ccc(C(=O)c2ccccc2)c(O)c1: 22.7
4. CCCn1c(SCC(=O)N2CCc3ccccc3C2)nc2c1c(=O)n(C)c(=O)n2C: 9
5. O=C(CP(=O)(CO)CO)c1ccc(Cl)cc1: -2.18
6. Cc1ccc(-c2nnn(CC(=O)N(Cc3cccs3)C(C(=O)NC(C)(C)C)c3ccc(C)o3)n2)o1 (stereo not drawn): -5.67
7. CCOCC(=O)Nc1sc2c(c1C(=O)OCC)CCCC2: 1.64
8. C=CCNC(=O)CN(c1cccc(Br)c1)S(C)(=O)=O: 0.16
9. c1cnc2c(SCc3ccc(-c4nnco4)cc3)cccc2c1: -12.4
10. CCNC(=O)COc1ccc(Br)cc1Cl: -1.9
11. O=C1CCCC2=C1C1(CCCC1)N=C(Nc1nc3ccccc3s1)N2: -2.33
12. CN(C(=O)c1ccccc1Cl)c1ccccc1: 0.95
13. Cc1c(Cl)cnc(NC(=O)COC(=O)C(NC(=O)c2ccco2)C(C)C)c1Cl (stereo not drawn): -4.76
14. CCOC(=O)c1c(NC(=O)c2cccs2)sc(C)c1C: -0.16
15. CCOC(=O)/C=C1\SCC(=O)N1Cc1ccc(Br)cc1: 4.13
16. CC1=C(c2ccc(Cl)cc2)[N+](=O)C(C)(C)N1[O-]: -10.2
17. Clc1ccc(Cc2nn3c(-c4ccncc4)nnc3s2)cc1: 15.4
18. CCC(Sc1ncccc1C(=O)O)C(=O)N1CCCC1 (stereo not drawn): -5.9
19. Cc1cc(C)nc(SCC(=O)Nc2ccc(S(=O)(=O)Nc3nccs3)cc2)n1: 5.9
20. Cn1c(=O)c2c(nc(SCc3nn[nH]n3)n2Cc2ccccc2F)n(C)c1=O: 1.27
21. CCN1CCN(CCCNC(=O)c2cn(CCOC)c(=O)c3c2c2ccccc2n3C)CC1: -3.82
22. COc1cc(CC(=O)Nc2ncc(C)s2)cc(OC)c1OC: 5.74
23. CCc1nnc2c3cnn(-c4ccccc4)c3ncn12: 2.38
24. COc1ccccc1OCc1ccc(C(=O)NC(C)(C)C)o1: -5.82
25. Cc1ccc(S(=O)(=O)NCCN2CCOCC2)cc1C: -1.11
26. Cc1cc(C(=O)N2CCN(C/C=C/c3ccccc3)CC2)no1: 2.62
27. CCNCCNC(=O)c1c(O)c2ccccc2n(CC)c1=O: 0.81
28. COc1ccc(OC)c(S(=O)(=O)N2CCC(C(=O)NCC3CCCO3)CC2)c1 (stereo not drawn): -3.49
29. COc1nc(N2CCOCC2)nc(-n2cccc2)n1: -5.09
30. CCOc1ccc(N(CC(=O)NC2CCCC2)S(=O)(=O)c2c(C)[nH]c(=O)[nH]c2=O)cc1: -3.28
31. COC(=O)C(CCCCNC(=O)OCc1ccccc1)NC(=O)CN (stereo not drawn) (H-Gly-[ξK](Cbz)-OMe): -0.79
32. O=C(OCc1ccccc1F)c1ccc2c(c1)OCCO2: -5.08
33. COc1ccc(N(CC(=O)N2CCN(Cc3ccc4c(c3)OCO4)CC2)S(C)(=O)=O)cc1OC: -2.58

----------
ASSAY NAME: reversal of MRP1-mediated doxorubicin resistance, pilot screen, H69AR cells, doxorubicin co-treatment (AID 601)
SETUP CONDITIONS: H69AR cells + 2 uM doxorubicin, CellTiter-Glo, 72 h; at 10 µM; stronger effect = higher value
MEASURED QUANTITY: differential viability (reversal) (%)

1) O=C(Nc1cccc(F)c1)c1cccc(S(=O)(=O)N2CCOCC2)c1: 0.615
2) O=C(CCN1C(=O)C2C3C=CC(C3)C2C1=O)NCCc1ccccc1Cl (stereo not given): 10.5
3) Cc1ccc2[nH]c(=O)c(CN(CCCN3CCOCC3)C(=O)Nc3cccc(Cl)c3)cc2c1: 5.47
4) Cc1cc(NC(=O)c2ccc3c(c2)C(=O)N(Cc2cccnc2)C3=O)no1: 0.045
5) COc1cccc(-c2cc(C(=O)NCc3ccc(Cl)cc3)no2)c1: 5.11
6) COc1ccc(Cc2nc(-c3ccc(NC(=O)c4cccnc4)cc3)no2)cc1: -0.01
7) CC(C)(C)C(=O)Oc1cc(N)n(S(=O)(=O)c2ccccc2)n1: 3.59
8) CCOC(=O)CSC1=C(C#N)C(=O)NC2(CCCCC2)S1: 12.1
9) CCn1nccc1C(=O)Nc1cc(Cl)ccc1Cl: 24.9
10) Clc1ccc(CSc2nnc(Cn3cnc4ccccc43)o2)cc1: 2.03
11) CCCS(=O)(=O)Nc1c(C(=O)O)[nH]c2ccccc12: -11.1
12) OCCN1CCN(CC(O)COc2ccc3ccccc3c2)CC1 (stereo not given): 10
13) Cc1nc(/N=C\N(C)C)sc1C(=O)Nc1ccccc1: 1.87
14) O=C(NCc1cccnc1)c1ccccn1: 16.2
15) N#Cc1nc(-c2ccco2)oc1NCCc1ccccc1: 14.8

----------
Quick reference: differential viability (reversal) of the listed items.
ASSAY NAME: reversal of MRP1-mediated doxorubicin resistance, pilot screen, H69AR cells, doxorubicin co-treatment (AID 601)
SETUP CONDITIONS: H69AR cells + 2 uM doxorubicin, CellTiter-Glo, 72 h; at 10 µM; stronger effect = higher value
Peptide text beside a SMILES is read from it. * marks the point of attachment. Boc = CC(C)(C)OC(=O)*
MEASURED QUANTITY: differential viability (reversal) (%)

1) Cn1c(=O)c2c(nc(SCCCC#N)n2Cc2ccccc2F)n(C)c1=O: -4.56
2) Cc1cccc(NC(=O)CC(C)(C)C)c1: 2.31
3) COC(=O)c1cccc(NC(=O)CSc2nnc(COc3ccc(C#N)cc3)n2-c2ccccc2)c1: -1.66
4) COc1ccc(-c2cc(C(F)(F)F)nc(N3CCN(c4ccc(F)cc4)CC3)n2)cc1OC: 6.42
5) CC(C)CC(NC(=O)OC(C)(C)C)C(=O)NC(C(=O)NC(C)C(N)=O)C(C)C (stereo not drawn) (Boc-Leu-Val-Ala-NH2; configuration not given here): 19.3
6) O=C(CSc1ncnc2c1oc1ccccc12)Nc1ccccc1F: 7.33
